Overview of recorded Change in Absorbance at 412 nm/Minute (Not Normalized) for various molecules
Target: butyrylcholinesterase (Equus caballus, UniProt P81908)
Construct: butyrylcholinesterase (from horse serum); purchased Sigma; host or cells: horse serum (natural source)
Sequence (P81908 whole entry): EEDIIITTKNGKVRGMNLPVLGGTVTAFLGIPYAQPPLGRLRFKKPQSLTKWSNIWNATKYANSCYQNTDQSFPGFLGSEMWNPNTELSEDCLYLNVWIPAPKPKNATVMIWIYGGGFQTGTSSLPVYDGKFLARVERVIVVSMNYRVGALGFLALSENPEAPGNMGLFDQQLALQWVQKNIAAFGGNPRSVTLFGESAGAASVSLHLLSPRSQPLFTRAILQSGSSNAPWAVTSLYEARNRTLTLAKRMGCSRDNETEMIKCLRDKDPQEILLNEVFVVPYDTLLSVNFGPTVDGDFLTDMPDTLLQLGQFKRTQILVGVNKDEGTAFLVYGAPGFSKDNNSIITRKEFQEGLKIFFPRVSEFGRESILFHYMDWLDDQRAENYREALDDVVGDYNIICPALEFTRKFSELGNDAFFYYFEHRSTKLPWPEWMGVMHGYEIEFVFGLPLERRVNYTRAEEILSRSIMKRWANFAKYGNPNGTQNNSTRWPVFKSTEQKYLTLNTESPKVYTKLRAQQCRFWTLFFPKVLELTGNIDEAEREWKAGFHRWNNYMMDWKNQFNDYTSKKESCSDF
Experiment: biochemical
Format: biochemical, horse
Conditions: compound final concentration 10^−7M
reportedEndpoint: Change in Absorbance at 412 nm/Minute (Not Normalized)

molecule	readoutNumber
CCCCP(=O)(Oc1ccccc1Cl)Oc1ccccc1Cl	0.32
CCCCOP(=O)(OCCCC)Oc1cccc(F)c1	0.468
CCCCOP(=O)(OCCCC)Oc1ccc(Br)cc1	0.495
CCCCP(=O)(CCCC)Oc1ccccc1Cl	0.684
CCCCOP(=O)(OCCCC)Oc1ccccc1Br	0.918
CCCCCCNP(=O)(OCCCC)Oc1ccccc1Cl (stereo not shown)	0.688
CCCCOP(=O)(OCCCC)Oc1cccc(Br)c1	4.18
CCCCOP(=O)(OCCCC)Oc1ccccc1F	1.75
CCCCOP(=O)(OCCCC)Oc1ccc(Cl)cc1 [drawing 55]	0.227
CCCCCCP(=O)(OCCCC)Oc1ccccc1Cl (stereo not shown)	10.04
